tgt: Serine/threonine-protein phosphatase 5 (Homo sapiens) (UniProt P53041)
Sequence (P53041 whole entry, looked up): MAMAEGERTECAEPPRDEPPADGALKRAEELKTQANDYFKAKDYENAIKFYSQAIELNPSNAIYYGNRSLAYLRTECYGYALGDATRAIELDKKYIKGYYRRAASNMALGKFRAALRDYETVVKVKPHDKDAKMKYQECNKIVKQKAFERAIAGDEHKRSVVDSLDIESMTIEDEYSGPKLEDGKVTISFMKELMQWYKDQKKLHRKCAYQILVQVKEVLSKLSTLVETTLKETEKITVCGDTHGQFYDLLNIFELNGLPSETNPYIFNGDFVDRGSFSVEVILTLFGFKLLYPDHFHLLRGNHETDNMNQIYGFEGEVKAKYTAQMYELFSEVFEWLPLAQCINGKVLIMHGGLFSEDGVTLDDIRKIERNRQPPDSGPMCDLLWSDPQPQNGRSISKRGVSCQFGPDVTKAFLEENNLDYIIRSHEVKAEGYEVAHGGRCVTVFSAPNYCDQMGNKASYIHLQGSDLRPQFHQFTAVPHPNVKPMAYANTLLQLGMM
measurement.notes: blocking PP5 removal of histone phosphate – biochemical, radiolabel, single concentration, PP5 inhibitor project, late-stage follow-up (AID 463223)
measurement.context: purified PP5c, 33P-phosphohistone radiolabel assay, scintillation counting, 10 min; at 10 µM; active compounds read high
Measured inhibition accompanies every entry in the list below.
Report only the number, with the unit % understood.

1) CCOC(=O)c1cnc(-n2nc(C)cc2C)nc1NC1CCCCC1 | 1.15
2) CCOC(=O)c1cnc(-n2nc(C)cc2C)nc1NCc1ccccc1 | 3.11
3) O=C1Nc2ccccc2N2CCCC12 (stereo not drawn) | -0.58
4) O=S(=O)(Cc1cc(NCc2ccccc2)nc(-c2ccccn2)n1)c1ccccc1 | 8.88
5) Oc1ccc(/C=N/Nc2cc(N3CCOCC3)nc(N3CCOCC3)n2)c(O)c1 | 0.87

Quick check: inhibition on Serine/threonine-protein phosphatase 5 (Homo sapiens) (UniProt P53041), item COc1cnc(-c2ccccn2)nc1Sc1cccc(Cl)c1 ? -0.66

For Serine/threonine-protein phosphatase 5 (Homo sapiens) (UniProt P53041), provide inhibition of O=C(NC1(O)C(=O)c2ccccc2C1=O)c1ccccc1 please. 1.84

GET /values?readout=inhibition&system=Serine/threonine-protein phosphatase 5 (Homo sapiens) (UniProt P53041)&item= Oc1ccccc1/C=N/Nc1cc(N2CCCC2)nc(N2CCCC2)n1 3.34

Give the reported inhibition for Cc1nnc(NC(=O)C2C3C=CC(O3)C2C(=O)O)s1 (stereo not drawn) (system: Serine/threonine-protein phosphatase 5 (Homo sapiens) (UniProt P53041)). 16

# get_value(readout= inhibition, system= Serine/threonine-protein phosphatase 5 (Homo sapiens) (UniProt P53041)) for COc1ccccc1Sc1nc(-c2ccccn2)ncc1OC -2.42

Look up inhibition with Serine/threonine-protein phosphatase 5 (Homo sapiens) (UniProt P53041) for this molecule: COc1ccc(C(=O)c2nccc3cc(OC)c(OC)cc23)cc1OC 1.93

Can you look up inhibition on Serine/threonine-protein phosphatase 5 (Homo sapiens) (UniProt P53041) for c1ccc(-c2nccc(-c3ccc(-n4cnc5ccccc54)cc3)n2)nc1 ? 9.23

# returns recorded inhibition (system: Serine/threonine-protein phosphatase 5 (Homo sapiens) (UniProt P53041)) for CCCCN(CC)c1nc(N)c2c(N)nc(OCC)cc2c1C#N 2.68

Hi! What's the reported inhibition for O=C(NC1(O)C(=O)c2ccccc2C1=O)c1c(Cl)cccc1Cl on Serine/threonine-protein phosphatase 5 (Homo sapiens) (UniProt P53041)? -1.34

Provide value of inhibition for this record tested with Serine/threonine-protein phosphatase 5 (Homo sapiens) (UniProt P53041): CCOc1ccc(NC(=S)Nc2ccc3nsnc3c2)cc1 -0.34

Look up inhibition with Serine/threonine-protein phosphatase 5 (Homo sapiens) (UniProt P53041) for this molecule: O=C(Nc1nc(-c2ccccn2)cs1)C1CC(=O)N(c2ccc3c(c2)OCCO3)C1 (stereo not drawn) -3.02

Requested read-out inhibition, target or system Serine/threonine-protein phosphatase 5 (Homo sapiens) (UniProt P53041), entry COc1ccc(NC(=S)Nc2ccc3nsnc3c2)cc1 -2.27

Item COc1cnc(-c2ccccn2)nc1Sc1ccccc1 with Serine/threonine-protein phosphatase 5 (Homo sapiens) (UniProt P53041) - inhibition? -1.46

// fetch Serine/threonine-protein phosphatase 5 (Homo sapiens) (UniProt P53041) inhibition for CCOC(=O)c1cnc(-n2nc(C)cc2C)nc1NCCc1ccccc1 0.06

Could you share what inhibition was measured for CCOC(=O)c1cnc(-n2cc(C)cn2)nc1NCc1ccc2c(c1)OCO2 , tested on Serine/threonine-protein phosphatase 5 (Homo sapiens) (UniProt P53041)? -0.82

What reported inhibition corresponds to Cc1[nH]n(-c2ccccc2)c(=O)c1C(c1ccc([N+](=O)[O-])cc1)c1c(C)[nH]n(-c2ccccc2)c1=O on Serine/threonine-protein phosphatase 5 (Homo sapiens) (UniProt P53041)? 3.51

Request - read-out inhibition | tested on Serine/threonine-protein phosphatase 5 (Homo sapiens) (UniProt P53041) | molecule O=C(O)c1cc(-c2ccc(Cl)c(Cl)c2)n(-c2ccccc2)n1 0.56

Param readout= inhibition; system= Serine/threonine-protein phosphatase 5 (Homo sapiens) (UniProt P53041); entry= CCOC(=O)c1nn(-c2ccc(C)cc2)c(=O)c2c(N)scc12 ; returns value. 0.85
